Hey, just so you know, these numbers are from patent US20180057507A1.

system-tested: human DLK (Homo sapiens)
test-name: DLK Kd Determinations (KINOMEscan KdELECT, DiscoveRx)
experimental-setup: fusion protein of full length human DLK (amino acids 1-859) and NFkB DNA binding domain; qPCR readout; duplicate
measured-quantity: Kd
State the value with its unit after it.

Entry Nc1ncc(-c2cn([C@H]3[C@@H]4CN(CC(F)(F)F)C[C@@H]43)c(C3CC3)n2)cc1OC(F)(F)F [Example 70] , system human DLK (Homo sapiens): what Kd was measured? 510 nM

Same question for CCC(O)c1nc(-c2cnc(N)c(C(F)(F)F)c2)cn1C1CCC1 (centres unmarked) [Example 22] please. 18 nM

Same question for Nc1ncc(-c2cn([C@H]3[C@@H]4CN(CCF)C[C@@H]43)c(C3CC3)n2)cc1OC(F)(F)F [Example 69] please. 45 nM

Same question for CC(C)c1nc(-c2cnc(N)c(OC(F)(F)F)c2)cn1[C@H]1[C@@H]2CN(C3CCOCC3)C[C@@H]21 [Example 81] please. 99 nM

Same question for Nc1ncc(-c2cn([C@H]3[C@@H]4CNC[C@@H]43)c(CC3CC3)n2)cc1OC(F)(F)F [Example 90] please. 40 nM

---

Consider the following compounds; for each one, report its pKd.
system-tested: UniProt:Q12852
Sequence (Q12852 1-859): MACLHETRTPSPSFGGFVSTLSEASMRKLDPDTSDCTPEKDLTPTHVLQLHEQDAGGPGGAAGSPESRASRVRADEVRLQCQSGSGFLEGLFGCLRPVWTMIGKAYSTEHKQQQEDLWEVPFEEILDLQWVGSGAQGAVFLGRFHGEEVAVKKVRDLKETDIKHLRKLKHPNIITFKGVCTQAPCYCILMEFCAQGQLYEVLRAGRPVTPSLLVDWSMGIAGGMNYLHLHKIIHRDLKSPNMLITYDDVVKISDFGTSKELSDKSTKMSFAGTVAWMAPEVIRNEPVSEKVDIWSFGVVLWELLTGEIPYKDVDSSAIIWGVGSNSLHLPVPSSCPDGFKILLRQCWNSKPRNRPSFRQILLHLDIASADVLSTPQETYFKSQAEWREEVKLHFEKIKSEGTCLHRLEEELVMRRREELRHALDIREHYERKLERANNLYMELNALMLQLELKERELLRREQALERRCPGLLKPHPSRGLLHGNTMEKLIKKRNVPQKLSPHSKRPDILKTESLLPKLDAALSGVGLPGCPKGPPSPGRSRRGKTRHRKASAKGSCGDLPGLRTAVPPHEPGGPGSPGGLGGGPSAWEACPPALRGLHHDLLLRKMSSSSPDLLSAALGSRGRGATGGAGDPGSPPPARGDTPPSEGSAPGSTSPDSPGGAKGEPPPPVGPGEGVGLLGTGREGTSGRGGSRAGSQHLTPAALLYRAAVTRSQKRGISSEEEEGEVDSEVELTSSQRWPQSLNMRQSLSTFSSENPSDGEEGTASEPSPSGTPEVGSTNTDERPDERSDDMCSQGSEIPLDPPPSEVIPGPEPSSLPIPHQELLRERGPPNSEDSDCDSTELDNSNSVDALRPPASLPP
test-name: DLK Kd Determinations (KINOMEscan KdELECT, DiscoveRx)
experimental-setup: fusion protein of full length human DLK (amino acids 1-859) and NFkB DNA binding domain; qPCR readout; duplicate
pKd (log units): -log10 of the concentration in mol/L.

Give the measured pKd of CC(C)c1nc(-c2cnc(N)c(C(F)(F)F)c2)cn1[C@H]1[C@@H]2CN(CC(F)F)C[C@@H]21 [Example 17] . 6.77

Same question for CC(C)c1nc(-c2cnc(N)c(C(F)(F)F)c2)cn1C1CCC1 [Example 7] please. 7.18

Same question for Nc1ncc(-c2cn([C@H]3[C@@H]4CN(C5COC5)C[C@@H]43)c(CC3CC3)n2)cc1OC(F)F [Example 87] please. 6.96

Same question for Nc1ncc(-c2cn([C@H]3[C@@H]4CN(CC(F)F)C[C@@H]43)c(C3CC3)n2)cc1OC(F)(F)F [Example 67] please. 6.89

Same question for COCCN1C[C@@H]2[C@H](C1)[C@H]2n1cc(-c2cnc(N)c(OC(F)F)c2)nc1C(C)C [Example 113] please. 7.02

Same question for Nc1ncc(-c2cn([C@H]3[C@@H]4CN(CC(F)F)C[C@@H]43)c(CC3CC3)n2)cc1C(F)(F)F [Example 61] please. 6.85

Same question for CC(C)c1nc(-c2cnc(N)c(C(F)(F)F)c2)cn1C1CC2(C1)CN(C1COC1)C2 [Example 31] please. 7.09
